I'd be grateful if you could share measured T/C for these entries.
system: AKR/Lw mice, AKR lymphoma ip, median survival T/C; assay: NCI In Vivo Anticancer Drug Screen. Data for tumor model Lymphoma AKR (Transplanted) (intraperitoneal) in AKR/Lw mice; conditions: endpoint: median survival time; dose: 100.0 mg/kg/injection; schedule: Q01DX001 (ip); vehicle: saline; higher = longer survival
Toxic doses and inconclusive results are not listed.

Name the reported T/C value associated with the compound COc1cccc2c1CCC1=C2CC2C(=O)C1CCC2(C)O (stereo not given)
88 % of control

Name the reported T/C value associated with the compound `O=C(O)C12CCC(CC1)C2`
103 % of control

Name the reported T/C value associated with the compound `O=c1[nH]cc(-c2ccccc2)c(=O)[nH]1`
94 % of control

Name the reported T/C value associated with the compound `Cc1cnc2c(=N)n(C(=O)C(F)(F)F)n(C)c2n1`
89 % of control

Name the reported T/C value associated with the compound CCCCCCCCC(=O)N1CC(C)OC(C)C1 (stereo not given)
100 % of control
